All values here come from patent US20200399311A1.

Target: Purified recombinant human PCSK9 (His-tagged, BPS Biosciences) (human) (UniProt Q8NBP7)
Sequence (Q8NBP7 31-692 limits assumed): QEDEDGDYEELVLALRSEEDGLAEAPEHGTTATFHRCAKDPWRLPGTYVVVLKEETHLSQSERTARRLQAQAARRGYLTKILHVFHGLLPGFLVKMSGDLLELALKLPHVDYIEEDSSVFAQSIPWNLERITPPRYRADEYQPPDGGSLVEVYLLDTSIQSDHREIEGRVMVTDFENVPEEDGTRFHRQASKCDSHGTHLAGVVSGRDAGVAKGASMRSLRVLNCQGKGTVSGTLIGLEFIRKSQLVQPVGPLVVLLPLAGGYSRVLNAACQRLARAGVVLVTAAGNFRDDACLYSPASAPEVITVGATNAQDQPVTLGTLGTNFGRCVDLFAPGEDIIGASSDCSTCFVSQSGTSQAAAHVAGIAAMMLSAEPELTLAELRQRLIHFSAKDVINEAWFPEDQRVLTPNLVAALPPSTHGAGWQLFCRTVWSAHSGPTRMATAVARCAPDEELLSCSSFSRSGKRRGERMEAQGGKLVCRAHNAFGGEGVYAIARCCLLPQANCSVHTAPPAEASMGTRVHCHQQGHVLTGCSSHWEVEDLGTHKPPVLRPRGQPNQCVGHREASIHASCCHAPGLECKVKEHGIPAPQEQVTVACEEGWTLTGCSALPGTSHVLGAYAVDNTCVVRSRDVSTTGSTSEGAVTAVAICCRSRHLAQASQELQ
Experiment: SPR (Biacore T200), PCSK9 amine-coupled on chip, peptide at 100 µM
Non-standard residues stand in square brackets, D forms with d. No end group written: not given here. Hyp = O=C(O)[C@@H]1C[C@@H](O)CN1; NMeI = CC[C@H](C)[C@H](NC)C(=O)O; hArg = N=C(N)NCCCC[C@H](N)C(=O)O; Cit = NC(=O)NCCC[C@H](N)C(=O)O; Aib = CC(C)(N)C(=O)O
The label is Satisfied for Binding - Response Unit (RU) below 20 RU and Not satisfied for Binding - Response Unit (RU) equal to or exceeding 20 RU.

{"Binder": "SIPWNLER[Aib]TPC [Short chain peptide Seq. ID. No. 5 (SIPWNLER-Aib-TPC)]", "Class": "Satisfied"}
{"Binder": "S[NMeI]IPWNLERITPC [Short chain peptide Seq. ID. No. 15 (S-(N-Me-Ile)-…)]", "Class": "Not satisfied"}
{"Binder": "[Aib]IPWNLERITPC [Short chain peptide Seq. ID. No. 14 (Aib-…)]", "Class": "Satisfied"}
{"Binder": "SIPWNLE[hArg]ITPC [Short chain peptide Seq. ID. No. 6 (SIPWNLE-Har-ITPC)]", "Class": "Satisfied"}
{"Binder": "SIPWNLE[Cit]ITPC [Short chain peptide Seq. ID. No. 12 (SIPWNLE-Cit-ITPC)]", "Class": "Satisfied"}
{"Binder": "SI[Hyp]WNLERITPC [Short chain peptide Seq. ID. No. 8 (SI-Hyp-…)]", "Class": "Satisfied"}
{"Binder": "SIPWNLERI[Aib]PC [Short chain peptide Seq. ID. No. 13 (…-Aib-PC)]", "Class": "Not satisfied"}
